target: T1, recombinant DLL3 ectodomain (rhDLL3-Fc) (human, UniProt Q9NYJ7 27-492, biotinylated (NHS-LC-LC-biotin) in the BLI and SPR assays)
T1 construct: also called rDLL3-Fc; recombinant human DLL3 (rDLL3); not shown: Fc part
T1 sequence: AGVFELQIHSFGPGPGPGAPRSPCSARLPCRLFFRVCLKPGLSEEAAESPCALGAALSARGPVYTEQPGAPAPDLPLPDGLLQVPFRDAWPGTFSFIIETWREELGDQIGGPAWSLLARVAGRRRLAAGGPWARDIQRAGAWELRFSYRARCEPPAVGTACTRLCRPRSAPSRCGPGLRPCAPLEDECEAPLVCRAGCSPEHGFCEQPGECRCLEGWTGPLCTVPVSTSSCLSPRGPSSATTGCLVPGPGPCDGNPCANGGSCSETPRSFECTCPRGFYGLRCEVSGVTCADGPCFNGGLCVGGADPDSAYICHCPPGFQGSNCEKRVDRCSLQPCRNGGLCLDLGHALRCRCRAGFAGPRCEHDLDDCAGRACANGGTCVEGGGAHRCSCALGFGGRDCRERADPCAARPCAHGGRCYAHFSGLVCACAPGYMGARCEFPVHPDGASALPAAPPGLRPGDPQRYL
method: BLI (Octet), biotinylated rhDLL3-Fc on streptavidin sensors
Bridge positions count the residues as written; N and C are the ends. Ends that are not written are not given here.
parameter measured: RT (residence time) (s)
Numbers only, in s.

Consider the following items and state reported RT (residence time) for each.
1. AETVEFYGCYGDRNDYTCTW-NH2 (disulfide 9-18 (inferred)) [PepSP1178]
2. WGCTGTWGNETCWW-NH2 (disulfide 3-12 (inferred), PepSP1146 without AETVEF) [PepSP1213]
3. AETVEFDGCKGDWYEWTCWW-NH2 (disulfide 9-18 (inferred)) [PepSP1164]
4. AETVEFYGCKWDWKGWTCAW-NH2 (disulfide 9-18 (inferred)) [PepSP1168]

[reply]
[75.9, 1.36, 125, 44]
